# Test System: recombinant human SK2 (Homo sapiens)
# Sequence (Q9NRA0 whole entry): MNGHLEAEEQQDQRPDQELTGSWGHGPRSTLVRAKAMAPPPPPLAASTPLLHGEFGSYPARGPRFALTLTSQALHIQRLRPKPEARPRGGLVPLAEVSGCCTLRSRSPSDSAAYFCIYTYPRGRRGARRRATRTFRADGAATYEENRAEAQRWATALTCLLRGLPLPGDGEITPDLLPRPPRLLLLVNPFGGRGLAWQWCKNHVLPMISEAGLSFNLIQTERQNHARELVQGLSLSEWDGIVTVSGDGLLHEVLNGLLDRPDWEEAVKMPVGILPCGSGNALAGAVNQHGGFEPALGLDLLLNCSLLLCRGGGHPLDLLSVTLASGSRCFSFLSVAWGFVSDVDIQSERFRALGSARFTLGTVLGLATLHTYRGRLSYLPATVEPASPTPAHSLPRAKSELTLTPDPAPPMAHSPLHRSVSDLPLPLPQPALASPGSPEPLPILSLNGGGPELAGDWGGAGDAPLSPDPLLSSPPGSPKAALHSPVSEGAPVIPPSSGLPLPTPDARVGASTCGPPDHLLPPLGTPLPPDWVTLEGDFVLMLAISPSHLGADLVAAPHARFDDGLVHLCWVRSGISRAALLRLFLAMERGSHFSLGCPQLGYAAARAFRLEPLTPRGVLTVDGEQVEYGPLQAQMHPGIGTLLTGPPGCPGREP
# Assay Explanation: SK activity assay, recombinant human SK2 (ADP-Quest; HPLC assay for SKI-II)
# Run Parameters: sphingosine 5 µM; ADP-Quest (SKI-II: HPLC assay); read-out: IC50 for inhibition of SK2

Compound: Oc1ccc(Nc2nc(-c3ccc(Cl)cc3)cs2)cc1 [SKI-II, reference compound]
IC50: 20 µM
--
Compound: O=C(NCCc1ccc(O)c(O)c1)C12CC3CC(C1)CC(c1ccc(Cl)cc1)(C3)C2 [ABC294735]
IC50: ~10 µM
--
Compound: CC(=O)N(C1=C(Cl)C(=O)c2ccccc2C1=O)C1CCCCC1 [CB5468139]
IC50: > 100 µM
--
Compound: O=C(NCc1ccncc1)C12CC3CC(C1)CC(c1ccc(Cl)cc1)(C3)C2 [ABC294640]
IC50: ~40 µM
--
Compound: CCCCCCCCCCCCC/C=C/[C@@H](O)[C@H](CO)N(C)C [DMS, N,N-dimethyl-D-erythro-sphingosine, reference compound]
IC50: ~20 µM

---

# Test System: recombinant human SK1 (Homo sapiens, UniProt Q9NYA1)
# Sequence (Q9NYA1 whole entry): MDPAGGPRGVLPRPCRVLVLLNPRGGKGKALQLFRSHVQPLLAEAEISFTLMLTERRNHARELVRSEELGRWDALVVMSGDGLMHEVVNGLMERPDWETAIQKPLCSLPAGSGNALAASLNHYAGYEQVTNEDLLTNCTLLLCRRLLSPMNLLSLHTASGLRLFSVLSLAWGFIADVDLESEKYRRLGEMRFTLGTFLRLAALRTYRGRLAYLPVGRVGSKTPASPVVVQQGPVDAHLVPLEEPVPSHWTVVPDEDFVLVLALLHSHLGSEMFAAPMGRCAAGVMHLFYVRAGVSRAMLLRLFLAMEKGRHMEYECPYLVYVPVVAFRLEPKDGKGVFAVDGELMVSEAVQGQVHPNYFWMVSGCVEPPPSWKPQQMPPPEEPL
# Assay Explanation: SK activity assay, recombinant human SK1 (ADP-Quest; HPLC assay for SKI-II)
# Run Parameters: sphingosine 10 µM; ADP-Quest (SKI-II: HPLC assay); read-out: IC50 for inhibition of SK1

Structure: O=C(NCc1ccncc1)C12CC3CC(C1)CC(c1ccc(Cl)cc1)(C3)C2
IC50: > 100 µM
//
Structure: CC(=O)N(C1=C(Cl)C(=O)c2ccccc2C1=O)C1CCCCC1
IC50: ~2 µM
//
Structure: O=C(NCCc1ccc(O)c(O)c1)C12CC3CC(C1)CC(c1ccc(Cl)cc1)(C3)C2
IC50: ~10 µM
